MEASUREMENT PROTOCOL: Quantitative High-Throughput drug screen in 47 multiple myeloma cell lines against the NCATS MIPE library collection: KMM1_JCRB cell viability assay (AID 1918960); also: nearly all actives have a fitted effect of over 30% in size
TEST CONDITIONS: KMM1 myeloma viability, CellTiter-Glo ATP luminescence, 48 h; series mostly up to 45.8 µM
Results filed as inconclusive are left out. Active and inactive are the calls of the source. Calls follow the shape of the dose curve; as a rule, active = well fitted cell-killing curve with a large enough effect; inconclusive = small, poorly fitted or top-dose-only effect, or effect the other way; inactive = no such curve, though single readings can be large or run the other way.
Field 'call' accepts yes for active, no for inactive

INSERT INTO assay_data (compound, label_class) VALUES
  ('S=C(NCc1ccc2c(c1)OCO2)N1CCN(c2ncnc3c2oc2ccccc23)CC1', 'yes'),
  ('CC(C)(N)C(=O)N[C@H](COCc1ccccc1)C(=O)N1CCC2(CC1)CN(S(C)(=O)=O)c1ccccc12', 'no'),
  ('COCC(=O)NCC=Cc1ccc2ncnc(Nc3ccc(Oc4ccc(C)nc4)c(C)c3)c2c1', 'yes'),
  ('CN(C)c1ccc(C2Nc3ccc4ccccc4c3C3=C2C(=O)CC(C)(C)C3)cc1Br (stereo not drawn)', 'yes'),
  ('OC(CN1CCC(Cc2ccc(F)cc2)CC1)c1ccc(Cl)cc1 (stereo not drawn)', 'no');

### Prompt Which result was noted for this compound in the test: CO[C@@H]1[C@H](N(C)C(=O)c2ccccc2)C[C@H]2O[C@]1(C)n1c3ccccc3c3c4c(c5c6ccccc6n2c5c31)C(=O)NC4
### Response yes

### Prompt Which result was noted for this compound in the test: Cc1[nH]c(=O)c(C#N)cc1-c1ccc2nccn2c1
### Response no

### Prompt Just curious, what result did CCn1cc(C(=O)O)c(=O)c2cc(F)c(N3CCNC(C)C3)c(F)c21 (stereo not drawn) get here?
### Response no

### Prompt Outcome? Cc1n[nH]c(C)c1Cc1sc2c(c1C(=O)N1C[C@H](O)CO1)c(=O)n(C)c(=O)n2CC(C)C
### Response yes

### Prompt Answer briefly: the call reported for Nc1ccc(S(=O)(=O)Nc2ccnn2-c2ccccc2)cc1 in this assay.
### Response no

### Prompt So what was the verdict on CC(=O)NC(C)c1ccc(Oc2ccc(OC(C)C)cc2)cc1 (stereo not drawn) in this test?
### Response yes

### Prompt # lookup: test call for CC[C@@H](C)[C@H](NC(=O)[C@H](CC1CCCCC1)NC(=O)c1ccno1)C(=O)N1CCC2(CCc3ccccc32)CC1
### Response no

### Prompt Call for entry N=c1nc(N2CCCCC2)cc(N)n1O :
### Response no

###

MEASUREMENT PROTOCOL: Quantitative High-Throughput drug screen in 47 multiple myeloma cell lines against the NCATS MIPE library collection: KMS11_JCRBsus cell viability assay (AID 1919873); also: nearly all actives have a fitted effect of over 50% in size
TEST CONDITIONS: KMS11 myeloma viability, CellTiter-Glo ATP luminescence, 48 h; series mostly up to 45.8 µM
Records with an inconclusive call do not appear. Activity calls are given as the source filed them. Calls come from the whole dose curve; as a rule, active = well fitted cell-killing curve with a large enough effect; inconclusive = small, poorly fitted or top-dose-only effect, or effect the other way; inactive = no such curve, though single readings can be large or run the other way.
// one of active, inactive, no free text

INSERT INTO assay_data (compound, label_class) VALUES
  ('S=C(NCc1ccc2c(c1)OCO2)N1CCN(c2ncnc3c2oc2ccccc23)CC1', 'active');

### Prompt State the result this test recorded for c1ccc([C@H]2CN3CCSC3=N2)cc1 .
### Response inactive

### Prompt Per the records of this test, what outcome belongs to Cn1cnc2c(F)c(Nc3ccc(Br)cc3Cl)c(C(=O)NOCCO)cc21 ?
### Response inactive

### Prompt Tell me the assay call for CC(c1cc2ccccc2s1)N(O)C(N)=O (stereo not drawn) please.
### Response inactive

### Prompt For this compound, state the assay outcome: O=C(O)CCc1ccc(NCc2cccc(Oc3ccccc3)c2)cc1
### Response inactive

### Prompt Tell me the recorded outcome of this test for CCC(C)(C)C(=O)O[C@H]1C[C@@H](C)C=C2C=C[C@H](C)[C@H](CC[C@@H]3C[C@@H](O)CC(=O)O3)[C@H]21 .
### Response active

### Prompt Kindly provide the recorded test outcome for the following compound: CCOc1cc(C=C2C(=O)N(c3ccccc3)N=C2C)cc(Cl)c1OCC(=O)OC
### Response inactive

### Prompt Can you look up the reported call for CN1CCN(CCCN2c3ccccc3Sc3ccc(C(F)(F)F)cc32)CC1 for me?
### Response inactive

### Prompt Please let me know the test result on file for Oc1ccc(C2CNCCc3c2cc(O)c(O)c3Cl)cc1 (stereo not drawn) .
### Response inactive

### Prompt Please indicate how the test categorized CCc1ccc(CCOc2ccc(CC3SC(=O)NC3=O)cc2)nc1 (stereo not drawn) .
### Response inactive

### Prompt Write down the call the test reported for this compound. Item: Cc1ccccc1C(OCCN(C)C)c1ccccc1 (stereo not drawn)
### Response inactive

### Prompt Tell me the recorded outcome of this test for O=c1n(CCCN2CCN(c3cccc(Cl)c3)CC2)nc2ccccn12 .
### Response inactive

### Prompt Could you kindly confirm the outcome this assay logged for CC(C)(Sc1ccc(CCN(CCCCC2CCCCC2)C(=O)NC2CCCCC2)cc1)C(=O)O ?
### Response inactive

###

Tested on: UISO
MEASUREMENT PROTOCOL: qHTS assay to identify novel small-molecules to repurpose for Merkel cell carcinoma treatment (AID 1296009); also: nearly all actives have a fitted effect of over 60% in size
TEST CONDITIONS: MCC and control cell lines, CellTiter-Glo viability, 72 h; series mostly up to 46 µM
Results filed as inconclusive are left out. Activity calls are given as the source filed them. The call rests on the fitted dose curve; in most records, active means well fitted inhibition curve with a large enough effect; inconclusive means small, poorly fitted or top-dose-only effect; inactive means flat fitted curve, though single readings scatter.
Assign a class; possible classes are active, inactive

Past entries and their recorded results:
INSERT INTO measurements (molecule, label_class) VALUES
  ('Cc1cccc(-c2[nH]c(C(C)(C)C)nc2-c2ccc3nccnc3c2)n1', 'active'),
  ('Cn1c(=O)c(F)c(Nc2ccc(I)cc2F)c2c(=O)n(C[C@@H](O)CO)cnc21', 'inactive'),
  ('OC(CN1CCC(Cc2ccc(F)cc2)CC1)c1ccc(Cl)cc1 (stereo unspecified)', 'inactive');

Next item in the queue.
### Prompt GET /call?item= Cc1cnc(Nc2ccc(OCCN3CCCC3)cc2)nc1Nc1cccc(S(=O)(=O)NC(C)(C)C)c1 returns the recorded outcome of this test.
### Response inactive

###

MEASUREMENT PROTOCOL: Quantitative High-Throughput drug screen in 47 multiple myeloma cell lines against the NCATS MIPE library collection: U266_ATCC cell viability assay (AID 1919864); also: nearly all actives have a fitted effect of over 35% in size
TEST CONDITIONS: U266 myeloma viability, CellTiter-Glo ATP luminescence, 48 h; series mostly up to 45.8 µM
Inconclusive results are not listed. Activity calls are given as the source filed them. Calls follow the shape of the dose curve; as a rule, active = well fitted cell-killing curve with a large enough effect; inconclusive = small, poorly fitted or top-dose-only effect, or effect the other way; inactive = no such curve, though single readings can be large or run the other way.
The reply should be one of these categories: Y for active, N for inactive

INSERT INTO assay_data (compound, label_class) VALUES
  ('c1ccc([C@H]2CN3CCSC3=N2)cc1', 'N'),
  ('CC(C)C[C@H](NC(=O)[C@@H](O)[C@H](N)Cc1ccccc1)C(=O)O', 'Y'),
  ('Cc1ccc(-n2nc(C(C)(C)C)cc2NC(=O)Nc2ccc(OCCN3CCOCC3)c3ccccc23)cc1', 'Y'),
  ('COc1ccc(C2=N[C@H](c3ccc(Cl)cc3)[C@H](c3ccc(Cl)cc3)N2C(=O)N2CCNC(=O)C2)c(OC(C)C)c1', 'Y'),
  ('CCCn1c(=O)c2[nH]c(C34CC5CC3C[C@@H](C5)C4)nc2n(CCC)c1=O', 'N'),
  ('CCOc1ccc(Cc2cc([C@@H]3O[C@H](CO)[C@@H](O)[C@H](O)[C@@H]3O)ccc2Cl)cc1', 'N');

### Prompt Hey, what did the test say about CCCc1nn(C)c2c(=O)[nH]c(-c3cc(S(=O)(=O)N4CCN(C)CC4)ccc3OCC)nc12 ?
### Response Y

### Prompt Could you check what this test reported for COc1cc(Nc2ncc3c(n2)-c2ccc(Cl)cc2C(c2c(F)cccc2OC)=NC3)ccc1C(=O)O ?
### Response N

### Prompt Each compound tested received a call. Report the one for O=C1CCc2cc(OCCCCc3nnnn3C3CCCCC3)ccc2N1 .
### Response N

### Prompt Name the outcome recorded for C[C@]12CC[C@H](O)CC1=CC[C@@H]1[C@H]2CC[C@]2(C)C(c3cccnc3)=CC[C@H]12 in the assay.
### Response N

### Prompt # lookup: test call for O=C(NOC[C@H](O)CO)c1ccc(F)c(F)c1Nc1ccc(I)cc1F
### Response Y

### Prompt Could you kindly confirm the outcome this assay logged for Clc1cccc(Cl)c1NC1=NCCN1 ?
### Response N

### Prompt # outcome recorded in this test, key = CN(C)C(=O)c1ccc(S(=O)(=O)c2ccc(NC(=O)[C@@](C)(O)C(F)(F)F)c(Cl)c2)cc1
### Response N

### Prompt Please share the test call associated with Nc1nc2ccc(OC(F)(F)F)cc2s1 .
### Response N

###

MEASUREMENT PROTOCOL: Quantitative High-Throughput drug screen in 47 multiple myeloma cell lines against the NCATS MIPE library collection: OCIMY7_PLB cell viability assay (AID 1918987); also: nearly all actives have a fitted effect of over 65% in size
TEST CONDITIONS: OCI-MY7 myeloma viability, CellTiter-Glo ATP, 48 h; series mostly up to 45.8 µM
Records with an inconclusive call do not appear. Calls of active or inactive are those of the source. The call rests on the fitted dose curve; in most records, active means well fitted cell-killing curve with a large enough effect; inconclusive means small, poorly fitted or top-dose-only effect, or effect the other way; inactive means no such curve, though single readings can be large or run the other way.
Use one of these outcomes when replying: active, inactive

For orientation, consider the following solved cases.
INSERT INTO assay_data (molecule, label_class) VALUES
  ('Cc1ccc(-n2nc(C(C)(C)C)cc2NC(=O)Nc2ccc(OCCN3CCOCC3)c3ccccc23)cc1', 'active'),
  ('O=c1[nH]cnc2[nH]ncc12', 'inactive'),
  ('O=c1ncn2nc(Sc3ccc(F)cc3F)ccc2c1-c1c(Cl)cccc1Cl', 'active'),
  ('C#Cc1cccc(Nc2ncnc3cc(OCCOC)c(OCCOC)cc23)c1', 'active'),
  ('Cc1cc(SCc2sc(-c3ccc(C(F)(F)F)cc3)nc2C)ccc1OCC(=O)O', 'active'),
  ('S=C(NCc1ccc2c(c1)OCO2)N1CCN(c2ncnc3c2oc2ccccc23)CC1', 'active'),
  ('CC(C=CC1=C(C)CCCC1(C)C)=CC=CC(C)=CC(=O)O', 'active'),
  ('COc1cccc2cc(-c3nc(C4CCC(C(=O)O)CC4)n4ncnc(N)c34)[nH]c12 (stereo not drawn)', 'active');

### Prompt Look up the recorded call for CO[C@@H]1[C@H](N(C)C(=O)c2ccccc2)C[C@H]2O[C@]1(C)n1c3ccccc3c3c4c(c5c6ccccc6n2c5c31)C(=O)NC4 in this test.
### Response active

### Prompt For COc1ccc2nc(S(=O)Cc3ncc(C)c(OC)c3C)[nH]c2c1 (stereo not drawn) , what call appears in the results of this test?
### Response active

### Prompt Could you kindly confirm the outcome this assay logged for Cc1oncc1C(=O)Nc1ccc(C(F)(F)F)cc1 ?
### Response inactive

### Prompt State the result this test recorded for CC(C)C[C@H](NC(=O)[C@@H](O)[C@H](N)Cc1ccccc1)C(=O)O .
### Response active

### Prompt Identify the outcome logged in this assay for the molecule shown: COc1ccc(CC2=NN3C([C@@H](CCc4ccccc4)[C@@H](C)O)=NC(C)C3C(=O)N2)cc1OC (stereo partly drawn)
### Response inactive

### Prompt Any idea what this test logged for C[C@]1(c2nc3c(C(N)=O)cccc3[nH]2)CCCN1 ?
### Response active

### Prompt // outcome(item) with item = CN(C)c1ccc(Nc2nc(N)n(C(=O)c3c(F)cccc3F)n2)cc1
### Response active

### Prompt Call for entry COc1ccc([C@@H]2CC(=O)c3c(O)cc(O[C@@H]4O[C@H](CO[C@@H]5O[C@@H](C)[C@H](O)[C@@H](O)[C@@H]5O)[C@@H](O)[C@H](O)[C@@H]4O)cc3O2)cc1O :
### Response active

### Prompt What was the test verdict on Cc1[nH]c(=O)c(C#N)cc1-c1ccc2nccn2c1 ?
### Response inactive

### Prompt For CNC(=O)c1ccc(C)c(-n2c(C)cc(OCc3ccc(F)cc3F)c(Br)c2=O)c1 , which call appears in the assay record?
### Response active

Cited source for all entries: PubChem BioAssay (NCATS)
